# Test system: Streptococcus pyogenes
# experiment-description: Antibacterial activity against erythromycin-nonsusceptible Streptococcus pyogenes by CLSI M7-A7 broth microdilution method
# Type: functional
quantity-name: MIC90

Some solved cases for reference:
1) CC[C@H]1OC(=O)[C@H](C)[C@@H](O[C@H]2C[C@@](C)(OC)[C@@H](O)[C@H](C)O2)[C@H](C)[C@@H](O[C@@H]2O[C@H](C)C[C@H](N(C)C)[C@H]2O)[C@](C)(O)C[C@@H](C)C(=O)[C@H](C)[C@@H](O)[C@]1(C)O    > 16 µg/mL
2) CC(C)(O/N=C(\C(=O)N[C@@H]1C(=O)N2C(C(=O)[O-])=C(C[n+]3ccccc3)CS[C@H]12)c1csc(N)n1)C(=O)O    ≤ 1 µg/mL
3) CC1(C)S[C@@H]2[C@H](NC(=O)Cc3ccccc3)C(=O)N2[C@H]1C(=O)O    ≤ 0.12 µg/mL

Turning now to a further molecule:
Problem: State the recorded MIC90 for this entry: C[C@@H](O)[C@H]1C(=O)N2C(C(=O)O)=C(SCCNC=N)C[C@H]12 [IMIPENEM ANHYDROUS]
Solution: ≤ 0.015 µg/mL

###

# System: Morganella morganii
# experiment-description: Antibacterial activity against ceftazidime-susceptible Morganella morganii by CLSI M7-A7 broth microdilution method
# Type: functional
// values below are reported MIC50

1. CCN1CCN(C(=O)N[C@@H](C(=O)N[C@@H]2C(=O)N3[C@@H]2SC(C)(C)[C@@H]3C(=O)O)c2ccccc2)C(=O)C1=O    ≤ 0.5 µg/mL
2. C[C@H]1COc2c(N3CCN(C)CC3)c(F)cc3c(=O)c(C(=O)O)cn1c23.C[C@H]1COc2c(N3CCN(C)CC3)c(F)cc3c(=O)c(C(=O)O)cn1c23.O    ≤ 0.03 µg/mL
3. CC1(C)S[C@@H]2[C@H](NC(=O)[C@H](N)c3ccccc3)C(=O)N2[C@H]1C(=O)O    > 32 µg/mL

Turning now to a further molecule:
Problem: State the recorded MIC50 for this entry: CO/N=C(\C(=O)N[C@@H]1C(=O)N2C(C(=O)O)=C(CSc3nc(=O)c(O)nn3C)CS[C@H]12)c1csc(N)n1
Solution: ≤ 0.06 µg/mL

###

# Tested on: Moraxella catarrhalis
# experiment-description: Antibacterial activity against beta lactamase-positive Moraxella catarrhalis by CLSI M7-A7 broth microdilution method
# Assay type: functional
quantity-name: MIC50

Some solved cases for reference:
1) CO/N=C(\C(=O)N[C@@H]1C(=O)N2C(C(=O)O)=C(CSc3nc(=O)c(O)nn3C)CS[C@H]12)c1csc(N)n1    ≤ 0.25 µg/mL
2) CC(C)(O/N=C(\C(=O)N[C@@H]1C(=O)N2C(C(=O)[O-])=C(C[n+]3ccccc3)CS[C@H]12)c1csc(N)n1)C(=O)O    ≤ 1 µg/mL
3) C[C@@H](O)[C@H]1C(=O)N2C(C(=O)O)=C(SCCNC=N)C[C@H]12 [IMIPENEM ANHYDROUS]    ≤ 0.12 µg/mL
4) CC[C@H]1OC(=O)[C@H](C)[C@@H](O[C@H]2C[C@@](C)(OC)[C@@H](O)[C@H](C)O2)[C@H](C)[C@@H](O[C@@H]2O[C@H](C)C[C@H](N(C)C)[C@H]2O)[C@](C)(O)C[C@@H](C)C(=O)[C@H](C)[C@@H](O)[C@]1(C)O    ≤ 0.12 µg/mL

Turning now to a further molecule:
Problem: State the recorded MIC50 for this entry: C[C@H]1COc2c(N3CCN(C)CC3)c(F)cc3c(=O)c(C(=O)O)cn1c23.C[C@H]1COc2c(N3CCN(C)CC3)c(F)cc3c(=O)c(C(=O)O)cn1c23.O
Solution: ≤ 0.03 µg/mL
